Target: human HPK1 (MAP4K1) (Homo sapiens (Human))
Assay: HPK1 IC50 Assay (TR-FRET peptide phosphorylation)
Type: biochemical
Details: recombinant HPK1 kinase domain 0.15 nM, 10 μM ATP, 1 μM STK S1 peptide; geometric mean of multiple experiments
Description: The enzymatic activity of human HPK1 (MAP4K1) was monitored in a biochemical assay in the presence or absence of compounds and using a synthetic peptide substrate. An increase in phosphorylation of the peptide by HPK1 was indicative of its kinase activity. […] Data in Table 1 were normalized based on positive (staurosporine) and negative (DMSO) controls. […] IC50 values from multiple experiments were averaged by geometric mean and the standard deviation was calculated.

| molecule | IC50 |
| --- | --- |
| Cc1cc(F)c(Nc2nc(-c3cnc4c(c3)N([C@H]3C[C@@](C)(N5C6CCC5COC6)C3)C(=O)C4(C)C)cc3ncn(C(C)C)c23)cc1C(=O)NC1(C(F)F)CC1 [Example 212] | 0.3 nM |
| CNC(=O)c1cc(Nc2nc(-c3ccc4c(c3)N([C@H]3C[C@@H](N5CCCCC5)C3)C(=O)C43CN(C(C)=O)C3)cc3ncn(C(C)C)c23)c(F)cc1C [Example 177] | 0.4 nM |
| CNC(=O)c1cc(Nc2nc(-c3ccc4c(c3)N([C@H]3C[C@@H](N5C6COCC5C6)C3)C(=O)C4(C)C)cc3ncn(C(C)C)c23)ccc1C [Example 6] | 0.1 nM |
| CNC(=O)c1cc(Nc2nc(-c3ccc4c(c3)N([C@H]3C[C@@H](N5CCCCC5)C3)C(=O)C43CCN(C(=O)C4CCC4)CC3)cc3ncn(C4CC4)c23)ccc1C [Example 155] | 0.06 nM |
| CC(C)n1cnc2cc(-c3cnc4c(c3)N([C@H]3C[C@@](C)(N5CCCCC5)C3)C(=O)C43CCOCC3)nc(Nc3cc(C(=O)NC4(C(F)F)CC4)c(Cl)c(F)c3F)c21 [Example 210] | 0.08 nM |

====

Below is a list of entries, each paired with its recorded pIC50 value.
Biological target: human HPK1 (MAP4K1) (Homo sapiens (Human), UniProt Q92918)
Sequence (Q92918 17-274): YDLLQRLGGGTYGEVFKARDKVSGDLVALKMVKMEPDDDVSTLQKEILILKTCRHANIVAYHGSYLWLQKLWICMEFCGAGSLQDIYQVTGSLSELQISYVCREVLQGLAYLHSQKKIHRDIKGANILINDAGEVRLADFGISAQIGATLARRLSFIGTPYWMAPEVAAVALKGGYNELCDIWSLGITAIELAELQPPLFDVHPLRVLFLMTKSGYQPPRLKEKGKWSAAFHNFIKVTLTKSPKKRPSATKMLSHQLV
Assay: HPK1 IC50 Assay (TR-FRET peptide phosphorylation)
Type: biochemical
Conditions: recombinant HPK1 kinase domain 0.15 nM, 10 μM ATP, 1 μM STK S1 peptide; geometric mean of multiple experiments
pIC50: −log10 of the molar value.

| molecule | pIC50 |
| --- | --- |
| CC(C)n1cnc2cc(-c3cnc4c(c3)N([C@H]3C[C@@](C)(N5CCC6CC6C5)C3)C(=O)C4(C)C)nc(Nc3cc(C(=O)NC4(C(F)F)CC4)c(Cl)c(F)c3F)c21 (mixture of isomers) [Example 260] | 10.10 |
| CC(C)n1cnc2cc(-c3ccc4c(c3)N([C@H]3C[C@@H](N5CCCCC5)C3)C(=O)C4(C)C)nc(Nc3cc(C(=O)NC4(C(F)F)CC4)c(Cl)c(F)c3F)c21 | 10.30 |
| CC(=O)N1CCC2(CC1)C(=O)N([C@H]1C[C@@H](N3CCCCC3)C1)c1cc(-c3cc4ncn(C(C)C)c4c(Nc4cc(C(=O)NC(C)C)c(Cl)cc4F)n3)ccc12 | 9.70 |
| Cc1c(C(=O)NC2(C(F)F)CC2)cc(Nc2nc(-c3cnc4c(c3)N([C@H]3C[C@@H](N5CCCCC5)C3)C(=O)C4(C)C)cc3ncn(C(C)C)c23)c(F)c1F | 10.40 |
| Cc1ccc(Nc2nc(-c3ccc4c(c3)N([C@H]3C[C@@H](N5CCCCC5)C3)C(=O)C4(C)C)cc3ncn(C(C)C)c23)cc1C(=O)NC1CCC1 | 10.00 |
| Cc1c(C(=O)NC2(C(F)F)CC2)cc(Nc2nc(-c3cnc4c(c3)N([C@H]3C[C@@](C)(N5CCC[C@@H](F)C5)C3)C(=O)C4(C)C)cc3ncn(C(C)C)c23)c(F)c1F | 10.00 |
| CCCNC(=O)c1cc(Nc2nc(-c3ccc4c(c3)N([C@H]3C[C@@H](N5CCCCC5)C3)C(=O)C4(C)C)cc3ncn(C(C)C)c23)ccc1C | 10.10 |
| CNC(=O)c1cc(Oc2nc(-c3ccc4c(c3)N([C@H]3C[C@@H](N5CCC(C)(C)C5)C3)C(=O)C43CCN(C(C)=O)CC3)cc3ncn(C(C)C)c23)ccc1C | 9.70 |
| Cc1ccc(Nc2nc(-c3ccc4c(c3)N([C@H]3C[C@@H](N5CCC[C@@H](F)C5)C3)C(=O)C4(C)C)cc3ncn(C4CC4)c23)cc1C(N)=O | 10.40 |
| CC(C)n1cnc2cc(-c3cnc4c(c3)N([C@H]3C[C@@](C)(N5CCCCC5)C3)C(=O)C4(C)C)nc(Nc3cc(C(=O)NC4(C(F)F)CC4)c(Cl)c(F)c3F)c21 | 10.10 |
| CC(C)n1cnc2cc(-c3ccc4c(c3)N([C@H]3C[C@@](C)(N5CCCCC5)C3)C(=O)C4(C)C)nc(Nc3cc(C(=O)NC4(C(F)F)CC4)cc(F)c3F)c21 | 10.30 |
| CNC(=O)c1cc(Nc2nc(-c3ccc4c(c3)N([C@H]3C[C@@H](N5CCC6(C5)CC6(F)F)C3)C(=O)C43CCN(C(C)=O)CC3)cc3ncn(C(C)C)c23)ccc1C (stereo partly drawn) | 9.70 |
| Cc1ccc(Nc2nc(-c3cnc4c(c3)N([C@H]3C[C@@H](N5CCCCC5)C3)C(=O)C4(C)C)cc3ncn(C(C)C)c23)cc1C(=O)NC1(C(F)F)CC1 | 9.52 |
| CNC(=O)c1cc(Nc2nc(-c3ccc4c(c3)N([C@H]3C[C@@H](N5CC[C@@H](F)C5)C3)C(=O)C4(C)C)cc3ncn(C(C)C)c23)c(F)cc1C | 10.00 |
| Cc1cc(F)c(Nc2nc(-c3ccc4c(c3)N([C@H]3C[C@@H](N5CCCCC5)C3)C(=O)C43CCN(C(=O)C(C)(C)O)CC3)cc3ncn(C(C)C)c23)cc1C(=O)NC(C)C | 9.70 |
| CNC(=O)c1cc(Nc2nc(-c3ccc4c(c3)N([C@H]3C[C@@H](N5CCCCC5)C3)C(=O)C4(C)C)cc3ncn(C(C)C)c23)ccc1C1CC1 | 9.70 |
| CNC(=O)c1ccc(F)c(Nc2nc(-c3ccc4c(c3)N([C@H]3C[C@@H](N5CCCCC5)C3)C(=O)C43CCN(C(C)=O)CC3)cc3ncn(C4CC4)c23)c1 | 9.40 |
| Cc1cc(F)c(Nc2nc(-c3cnc4c(c3)N([C@H]3C[C@@](C)(N5CCOCC5)C3)C(=O)C4(C)C)cc3ncn(C(C)C)c23)cc1C(=O)NC1(C(F)F)CC1 | 10.00 |
| Cc1c(C(=O)NCC(F)F)cc(Nc2nc(-c3cnc4c(c3)N([C@H]3C[C@@](C)(N5CCCCC5)C3)C(=O)C4(C)C)cc3ncn(C(C)C)c23)c(F)c1F | 10.22 |
| CNC(=O)c1cc(Nc2nc(-c3ccc4c(c3)N([C@H]3C[C@@H](N[C@@H]5CCOC[C@H]5C)C3)C(=O)C4(C)C)cc3ncn(C(C)C)c23)ccc1C | 10.00 |
| Cc1c(C(=O)NC2(C(F)F)CC2)cc(Nc2nc(-c3cnc4c(c3)N([C@H]3C[C@@](C)(N5C[C@H]6COC[C@H]6C5)C3)C(=O)C4(C)C)cc3ncn(C(C)C)c23)c(F)c1F | 9.70 |

====

Below is a list of entries, each paired with its recorded IC50 value.
Molecular target: human HPK1 (MAP4K1) (Homo sapiens (Human), UniProt Q92918)
Assay: HPK1 IC50 Assay (TR-FRET peptide phosphorylation)
Type: biochemical
Conditions: recombinant HPK1 kinase domain 0.15 nM, 10 μM ATP, 1 μM STK S1 peptide; geometric mean of multiple experiments
Method: The enzymatic activity of human HPK1 (MAP4K1) was monitored in a biochemical assay in the presence or absence of compounds and using a synthetic peptide substrate. An increase in phosphorylation of the peptide by HPK1 was indicative of its kinase activity. […] Data in Table 1 were normalized based on positive (staurosporine) and negative (DMSO) controls. […] IC50 values from multiple experiments were averaged by geometric mean and the standard deviation was calculated.

| compound | system.tested | IC50, nM |
| --- | --- | --- |
| Cc1c(C(=O)NC2(C(F)F)CC2)cc(Nc2nc(-c3cnc4c(c3)N([C@H]3C[C@@](C)(N5CCCCCC5)C3)C(=O)C4(C)C)cc3ncn(C(C)C)c23)c(F)c1F [Example 229] | human HPK1 (MAP4K1) (Homo sapiens (Human), UniProt Q92918) | 0.08 |
| Cc1ccc(Nc2nc(-c3ccc4c(c3)N([C@H]3C[C@@H](N5CCCCC5)C3)C(=O)C43CCN(C4COC4)CC3)cc3ncn(C(C)C)c23)cc1C(=O)NC(C)C [Example 73] | human HPK1 (MAP4K1) (Homo sapiens (Human), UniProt Q92918) | 0.1 |
| CNC(=O)c1cc(Nc2nc(-c3ccc4c(c3)N([C@H]3C[C@@H](N5CCCCC5)C3)CC4(C)C)cc3ncn(C4CC4)c23)ccc1C [Example 58] | human HPK1 (MAP4K1) (Homo sapiens (Human), UniProt Q92918) | 0.6 |

Origin of values: patent US11203591B2
